Target: recombinant human baculovirus-expressed GST-tagged FASN (Homo sapiens, UniProt P49327)
Construct: GST
Sequence (P49327 whole entry): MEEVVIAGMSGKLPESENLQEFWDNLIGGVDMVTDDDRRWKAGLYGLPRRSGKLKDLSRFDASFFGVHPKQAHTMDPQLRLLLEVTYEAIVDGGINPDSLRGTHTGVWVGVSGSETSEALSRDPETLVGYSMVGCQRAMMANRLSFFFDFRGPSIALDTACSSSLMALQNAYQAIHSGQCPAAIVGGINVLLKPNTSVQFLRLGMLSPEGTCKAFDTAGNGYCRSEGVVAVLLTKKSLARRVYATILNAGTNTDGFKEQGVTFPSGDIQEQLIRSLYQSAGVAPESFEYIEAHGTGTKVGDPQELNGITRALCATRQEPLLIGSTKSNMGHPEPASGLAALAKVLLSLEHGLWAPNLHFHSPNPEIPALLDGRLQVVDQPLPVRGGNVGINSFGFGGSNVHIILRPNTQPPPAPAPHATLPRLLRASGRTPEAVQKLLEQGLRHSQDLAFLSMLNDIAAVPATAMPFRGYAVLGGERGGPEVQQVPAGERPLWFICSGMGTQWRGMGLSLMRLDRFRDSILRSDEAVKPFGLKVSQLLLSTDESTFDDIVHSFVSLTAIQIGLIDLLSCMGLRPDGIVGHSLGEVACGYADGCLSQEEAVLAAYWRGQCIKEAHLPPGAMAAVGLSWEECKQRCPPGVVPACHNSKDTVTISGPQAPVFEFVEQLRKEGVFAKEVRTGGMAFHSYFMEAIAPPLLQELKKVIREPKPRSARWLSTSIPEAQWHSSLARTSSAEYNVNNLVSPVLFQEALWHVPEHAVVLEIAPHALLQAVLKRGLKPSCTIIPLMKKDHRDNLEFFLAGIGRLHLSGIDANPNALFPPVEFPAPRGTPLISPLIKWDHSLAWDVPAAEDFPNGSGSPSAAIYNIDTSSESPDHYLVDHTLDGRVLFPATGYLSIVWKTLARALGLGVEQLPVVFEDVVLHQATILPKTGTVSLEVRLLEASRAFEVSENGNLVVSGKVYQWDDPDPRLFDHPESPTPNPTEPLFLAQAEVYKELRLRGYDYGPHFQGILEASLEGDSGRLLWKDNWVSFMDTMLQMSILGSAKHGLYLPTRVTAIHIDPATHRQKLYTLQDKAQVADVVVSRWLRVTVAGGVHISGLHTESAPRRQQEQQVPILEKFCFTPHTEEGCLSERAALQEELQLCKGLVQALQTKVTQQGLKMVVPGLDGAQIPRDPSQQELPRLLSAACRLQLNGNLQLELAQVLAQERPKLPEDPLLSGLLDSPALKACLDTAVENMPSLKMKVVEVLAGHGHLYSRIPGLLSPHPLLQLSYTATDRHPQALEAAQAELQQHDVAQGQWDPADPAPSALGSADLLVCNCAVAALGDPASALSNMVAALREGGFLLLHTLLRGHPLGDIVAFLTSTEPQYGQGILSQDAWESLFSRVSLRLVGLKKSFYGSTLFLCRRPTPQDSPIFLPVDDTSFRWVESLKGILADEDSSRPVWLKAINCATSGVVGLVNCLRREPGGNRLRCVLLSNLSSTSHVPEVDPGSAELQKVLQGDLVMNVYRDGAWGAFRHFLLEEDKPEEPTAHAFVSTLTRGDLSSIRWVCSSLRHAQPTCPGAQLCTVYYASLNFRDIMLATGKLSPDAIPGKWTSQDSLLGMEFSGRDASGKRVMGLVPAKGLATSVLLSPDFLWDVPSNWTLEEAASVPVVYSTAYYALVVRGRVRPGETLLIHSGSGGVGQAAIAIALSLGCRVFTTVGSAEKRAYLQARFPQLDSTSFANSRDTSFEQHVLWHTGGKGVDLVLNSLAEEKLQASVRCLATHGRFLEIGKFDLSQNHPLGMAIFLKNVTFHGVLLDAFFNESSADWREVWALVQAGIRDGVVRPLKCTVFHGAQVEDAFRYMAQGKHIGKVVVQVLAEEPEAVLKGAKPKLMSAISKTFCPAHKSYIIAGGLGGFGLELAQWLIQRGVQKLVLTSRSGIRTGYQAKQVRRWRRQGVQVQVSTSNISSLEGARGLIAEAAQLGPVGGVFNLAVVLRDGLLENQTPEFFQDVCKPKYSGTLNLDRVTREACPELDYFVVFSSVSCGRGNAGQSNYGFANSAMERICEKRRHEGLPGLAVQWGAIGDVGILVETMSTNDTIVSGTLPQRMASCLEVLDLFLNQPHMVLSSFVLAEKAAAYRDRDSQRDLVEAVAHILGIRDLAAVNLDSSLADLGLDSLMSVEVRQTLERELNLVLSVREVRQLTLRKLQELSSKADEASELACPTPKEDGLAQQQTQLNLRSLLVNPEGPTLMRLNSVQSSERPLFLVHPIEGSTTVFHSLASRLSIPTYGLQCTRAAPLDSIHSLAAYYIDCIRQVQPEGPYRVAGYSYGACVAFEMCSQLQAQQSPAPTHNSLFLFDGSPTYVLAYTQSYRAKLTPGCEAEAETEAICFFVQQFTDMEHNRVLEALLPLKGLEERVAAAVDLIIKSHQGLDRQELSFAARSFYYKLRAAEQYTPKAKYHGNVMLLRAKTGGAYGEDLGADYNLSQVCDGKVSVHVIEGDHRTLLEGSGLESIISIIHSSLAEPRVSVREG
Experiment: FASN enzyme activity assay, fluorescence-based detection of CoA with CPM
Format: biochemical
Settings: 5 nM FASN, 150 μM NADPH, 10 μM acetyl-CoA, 25 μM malonyl-CoA, 90 minutes incubation; read-out: IC50 data for Compounds of Formulae I-V/V(a): Activity
Structures can show the parent of a compound that is named as a salt.
VALUE_KIND: IC50

INPUT: IC50 for O=C(C1CCC1)N1CCC(Oc2ccc(-c3cnc4cccc(F)c4c3)cc2)CC1 ?
OUTPUT: 1 to 99 nM

INPUT: Also O=C(C1CCCCO1)N1CCC(Oc2ccc(-c3cnc4ccccc4c3)cc2)CC1 (centres unmarked) ?
OUTPUT: 100 to 999 nM

INPUT: Also Cc1cccc2cc(-c3ccc(OC4CCN(C(=O)C5CC5)CC4)cc3)cnc12 ?
OUTPUT: 1 to 99 nM

INPUT: Also O=C(C1CC1)N1CCC(Oc2ccc(-c3ccc(Oc4ccccc4)nc3)cc2)CC1 ?
OUTPUT: 1000 to 10000 nM

INPUT: Also O=C(C1CCC1)N1CCC(Oc2ccc(-c3ccc4c(Cl)nccc4c3)cc2)CC1 ?
OUTPUT: 100 to 999 nM

INPUT: Also CCC(=O)N1CCC(Oc2ccc(-c3ccc4cccnc4c3)cc2OC)CC1 ?
OUTPUT: 1000 to 10000 nM

INPUT: Also Cc1c(-c2ccc(OC3CCN(C(=O)[C@H]4CCCO4)CC3)cc2)ccc2cccnc12 ?
OUTPUT: 1 to 99 nM

INPUT: Also CCC(=O)N1CC[C@H](Oc2ccc(-c3cnc4ccccc4c3)cc2)C1 [Example 343, HCl] ?
OUTPUT: 1000 to 10000 nM
